System: P. vulgatus WT
Test: growth AUC normalised to DMSO control (median) (fraction of control); higher = less growth inhibition, active = hit call of the paper
Settings: 20 µM
Counter-ions that a name gives are not always drawn.

- compound: "CC[C@@]1([C@@H]2O[C@@H]([C@H]3O[C@@](O)(CO)[C@H](C)C[C@@H]3C)C[C@@H]2C)CC[C@H]([C@]2(C)CC[C@]3(C[C@H](O)[C@@H](C)[C@@H]([C@@H](C)[C@@H](OC)[C@H](C)C(=O)O)O3)O2)O1 [Monensin sodium salt]"
  growth AUC normalised to DMSO control: 0.305
- compound: "CO[C@]12C[C@@H](COC(=O)c3cncc(Br)c3)CN(C)[C@@H]1Cc1cn(C)c3cccc2c13"
  growth AUC normalised to DMSO control: 0.948
- compound: "O=C(O[C@H]1C[N+]2(CCCOc3ccccc3)CCC1CC2)C(O)(c1cccs1)c1cccs1 [Aclidinium bromide]"
  growth AUC normalised to DMSO control: 1
- compound: "CCCC(C)C1(CC)C(=O)NC(=O)NC1=O (configuration not stated)"
  growth AUC normalised to DMSO control: 1.06
- compound: "CCN(CC)CCOC(=O)C(O)(c1ccccc1)c1ccccc1 [Benactyzine hydrochloride]"
  growth AUC normalised to DMSO control: 0.997
- compound: "C=CCN1CC[C@]23c4c5ccc(O)c4O[C@H]2C(=O)CC[C@@]3(O)[C@H]1C5 [Naloxone hydrochloride]"
  growth AUC normalised to DMSO control: 0.997
- compound: "Clc1ccc(C(OCCN2CCCCC2)c2ccccc2)cc1 (configuration not stated) [Cloperastine hydrochloride]"
  growth AUC normalised to DMSO control: 1

----------
Tested on: P. vulgatus WT
Test: growth AUC normalised to DMSO control (median) (fraction of control); higher = less growth inhibition, active = hit call of the paper
Details: 20 µM
Structures can show the parent of a compound that is named as a salt.
The following compounds are shown together with reported growth AUC normalised to DMSO control values.

- compound: "C[C@H](N)[C@H](O)c1ccc(O)c(O)c1 [Levonordefrin]"
  growth AUC normalised to DMSO control: 1.03
- compound: "CCN(CC)C(C)C(=O)c1ccccc1 (stereo unspecified) [Amfepramone hydrochloride]"
  growth AUC normalised to DMSO control: 1.01
- compound: "C[C@]12COC(=O)C[C@@H]1CC[C@@H]1[C@@H]2CC[C@@]2(C)[C@H]1CC[C@]2(C)O [Oxandrolone]"
  growth AUC normalised to DMSO control: 1.05
- compound: "CCOC(=O)c1cncn1[C@H](C)c1ccccc1 [Etomidate]"
  growth AUC normalised to DMSO control: 1.1
- compound: "CC(Cc1ccc(O)cc1)NCC(O)c1cc(O)cc(O)c1 (stereo unspecified) [Fenoterol hydrobromide]"
  growth AUC normalised to DMSO control: 1.03
- compound: "Oc1ccc2c3c1O[C@H]1[C@@H](O)CC[C@@]4(O)[C@@H](C2)N(CC2CCC2)CC[C@]314 [Nalbuphine hydrochloride]"
  growth AUC normalised to DMSO control: 0.966
- compound: "O=C(NCNC(=O)NC1C(=O)NC(=O)N1CO)NC1C(=O)NC(=O)N1CO (stereo unspecified) [Imidurea]"
  growth AUC normalised to DMSO control: 1.01
- compound: "CC[N+]1(C)CCCC(OC(=O)C(O)(c2ccccc2)c2ccccc2)C1 (stereo unspecified) [Pipenzolate bromide]"
  growth AUC normalised to DMSO control: 1.02
- compound: "C=C[C@H]1CN2CC[C@H]1C[C@H]2[C@H](OC(=O)OCC)c1ccnc2ccc(OC)cc12 [Quinine ethyl carbonate]"
  growth AUC normalised to DMSO control: 1
- compound: "COC[C@@H](NC(C)=O)C(=O)NCc1ccccc1 [Lacosamide]"
  growth AUC normalised to DMSO control: 1
- compound: "CN1C[C@H](C(=O)N[C@]2(C)O[C@@]3(O)[C@@H]4CCCN4C(=O)[C@H](Cc4ccccc4)N3C2=O)C[C@@H]2c3cccc4[nH]cc(c34)C[C@H]21 [Dihydroergotamine tartrate]"
  growth AUC normalised to DMSO control: 0.996
- compound: "C[N+]1([O-])[C@@H]2C[C@@H](OC(=O)[C@H](CO)c3ccccc3)C[C@H]1[C@@H]1O[C@@H]12 (stereo partly specified) [Scopolamin-N-oxide hydrobromide]"
  growth AUC normalised to DMSO control: 1.02
- compound: "C#C[C@]1(O)C=C[C@H]2[C@@H]3CCC4=CC(=O)CC[C@@H]4[C@H]3CC[C@@]21CC [Gestodene]"
  growth AUC normalised to DMSO control: 0.978
- compound: "CN(C)C(=O)Oc1cc(OC(=O)N(C)C)cc(C(O)CNC(C)(C)C)c1 (stereo unspecified) [Bambuterol hydrochloride]"
  growth AUC normalised to DMSO control: 1.02
- compound: "C[C@]12CC[C@H]3[C@@H](CCC4=CC(=O)CC[C@@H]43)[C@@H]1CC[C@@H]2O [Nandrolone]"
  growth AUC normalised to DMSO control: 1.03
- compound: "COc1ccc(C(CN(C)C)C2(O)CCCCC2)cc1 (stereo unspecified) [Venlafaxine]"
  growth AUC normalised to DMSO control: 0.999

----------
The following compounds are shown together with reported growth AUC normalised to DMSO control values.
Tested on: S. enterica typhimurium WT
Test: growth AUC normalised to DMSO control (median) (fraction of control); higher = less growth inhibition, active = hit call of the paper
Conditions: 20 µM
Counter-ions that a name gives are not always drawn.

- compound: "CC[C@@H](C(=O)[C@@H](C)[C@@H](O)[C@H](C)[C@@H]1O[C@@H]([C@@H](CC)C(=O)O)CC[C@@H]1C)[C@H]1O[C@]2(C=C[C@@H](O)[C@]3(CC[C@@](C)([C@H]4CC[C@](O)(CC)[C@H](C)O4)O3)O2)[C@H](C)C[C@@H]1C [Salinomycin sodium]"
  growth AUC normalised to DMSO control: 1.01
- compound: "NC(=O)OCCCc1ccccc1 [Phenprobamate]"
  growth AUC normalised to DMSO control: 0.989
- compound: "CN1CCN(C(=O)OC2c3nccnc3C(=O)N2c2ccc(Cl)cn2)CC1 (configuration not stated)"
  growth AUC normalised to DMSO control: 0.994
- compound: "C[C@H](N)[C@H](O)c1ccc(O)c(O)c1"
  growth AUC normalised to DMSO control: 0.99
- compound: "CC[C@@H](CO)NC(=O)[C@@H]1C=C2c3cccc4[nH]cc(c34)C[C@H]2N(C)C1 [Methylergometrine maleate]"
  growth AUC normalised to DMSO control: 0.993
- compound: "CC(C)c1c(CN(C)C(C)Cc2ccccc2)n(C)n(-c2ccccc2)c1=O (configuration not stated)"
  growth AUC normalised to DMSO control: 1.01
- compound: "C[C@@H]1C[C@@H]([C@H](O)CC2CC(=O)NC(=O)C2)C(=O)[C@@H](C)C1 [Cycloheximide]"
  growth AUC normalised to DMSO control: 0.999

----------
Test system: Shigella flexneri
Assay: growth AUC normalised to DMSO control (fraction of control); higher = less growth inhibition, active = hit call of the paper
Conditions: 20 µM
Counter-ions that a name gives are not always drawn.
Outcome codes: active, inactive

- molecule: "C[C@]12CC[C@H](O)C[C@@H]1CC[C@@H]1[C@@H]2CC[C@]2(C)C(=O)CC[C@@H]12 [Epiandrosterone]"
  assignedClass: "inactive"
- molecule: "CCN(CC)C(C)C(=O)c1ccccc1 (stereo not drawn) [Amfepramone hydrochloride]"
  assignedClass: "inactive"
- molecule: "CC(=O)OCC(=O)[C@H]1CC[C@H]2[C@@H]3CC[C@H]4C[C@H](O)CC[C@]4(C)[C@H]3C(=O)C[C@]12C [Alfadolone acetate]"
  assignedClass: "inactive"
- molecule: "O=C(NCNC(=O)NC1C(=O)NC(=O)N1CO)NC1C(=O)NC(=O)N1CO (stereo not drawn)"
  assignedClass: "inactive"
- molecule: "CN(C)[C@@H]1C(=O)C(C(N)=O)=C(O)[C@@]2(O)C(=O)C3=C(O)c4c(O)ccc(Cl)c4[C@@](C)(O)[C@H]3C[C@@H]12 [Chlortetracycline hydrochloride]"
  assignedClass: "active"
- molecule: "CCCC(C)C1(CC)C(=O)NC(=O)NC1=O (stereo not drawn)"
  assignedClass: "inactive"
- molecule: "CCC(=O)O[C@H]1CC[C@H]2[C@@H]3CCC4=CC(=O)CC[C@]4(C)[C@H]3CC[C@]12C [Testosterone propionate]"
  assignedClass: "inactive"
- molecule: "CNCC(O)c1ccc(O)cc1 (stereo not drawn) [Synephrine]"
  assignedClass: "inactive"

----------
Test system: Haemophilus parainfluenzae
Assay: growth AUC normalised to DMSO control (fraction of control); higher = less growth inhibition, active = hit call of the paper
Conditions: 20 µM
Structures can show the parent of a compound that is named as a salt.
The following molecules are shown together with reported growth AUC normalised to DMSO control values.

- molecule: "COc1ccc2c(c1)C(=O)N(CCc1ccc(S(=O)(=O)NC(=O)NC3CCCCC3)cc1)C(=O)C2(C)C [Gliquidone]"
  targetDesc: "Haemophilus parainfluenzae"
  growth AUC normalised to DMSO control: 0.998
- molecule: "CC(=O)O[C@]1(C(C)=O)CC[C@H]2[C@@H]3C=C(Cl)C4=CC(=O)[C@@H]5C[C@@H]5[C@]4(C)[C@H]3CC[C@@]21C [Cyproterone acetate]"
  targetDesc: "Haemophilus parainfluenzae"
  growth AUC normalised to DMSO control: 1.01
- molecule: "CCN(CC)CCOCCOC(=O)C1(c2ccccc2)CCCC1 [Carbetapentane citrate]"
  targetDesc: "Haemophilus parainfluenzae"
  growth AUC normalised to DMSO control: 1
- molecule: "O=C(O[C@@H]1C[C@@H]2C[C@H]3C[C@H](C1)N2CC3=O)c1c[nH]c2ccccc12 [Dolasetron mesilate]"
  targetDesc: "Haemophilus parainfluenzae"
  growth AUC normalised to DMSO control: 1.06
- molecule: "CNC(=C[N+](=O)[O-])NCCSCc1ccc(CN(C)C)o1 [Ranitidine hydrochloride]"
  targetDesc: "Haemophilus parainfluenzae"
  growth AUC normalised to DMSO control: 0.992
- molecule: "CCS(=O)(=O)CCn1c([N+](=O)[O-])cnc1C [Tinidazole]"
  targetDesc: "Haemophilus parainfluenzae"
  growth AUC normalised to DMSO control: 0.987
- molecule: "CO[C@]12C[C@@H](COC(=O)c3cncc(Br)c3)CN(C)[C@@H]1Cc1cn(C)c3cccc2c13 [Nicergoline]"
  targetDesc: "Haemophilus parainfluenzae"
  growth AUC normalised to DMSO control: 1.03
- molecule: "C[N+]1([O-])[C@@H]2C[C@@H](OC(=O)[C@H](CO)c3ccccc3)C[C@H]1[C@@H]1O[C@@H]12 (stereo not given in full) [Scopolamin-N-oxide hydrobromide]"
  targetDesc: "Haemophilus parainfluenzae"
  growth AUC normalised to DMSO control: 0.991
- molecule: "N=C(N)NCc1cccc(I)c1 [Iobenguane sulfate]"
  targetDesc: "Haemophilus parainfluenzae"
  growth AUC normalised to DMSO control: 1.02
- molecule: "CC(C)c1c(C(=O)Nc2ccccc2)c(-c2ccccc2)c(-c2ccc(F)cc2)n1CC[C@@H](O)C[C@@H](O)CC(=O)O [Atorvastatin]"
  targetDesc: "Haemophilus parainfluenzae"
  growth AUC normalised to DMSO control: 0.996
- molecule: "COc1ccc2c(c1)c(CC(=O)O)c(C)n2C(=O)c1ccc(Cl)cc1 [Indomethacin]"
  targetDesc: "Haemophilus parainfluenzae"
  growth AUC normalised to DMSO control: 0.975
- molecule: "COc1c(O[C@@H]2O[C@H](CO)[C@@H](O)[C@H](O)[C@H]2O)cc2c(c1OC)-c1ccc(SC)c(=O)cc1[C@@H](NC(C)=O)CC2 [Thiocolchicoside]"
  targetDesc: "Haemophilus parainfluenzae"
  growth AUC normalised to DMSO control: 0.996
- molecule: "CCN1CCCC(OC(=O)C(c2ccccc2)c2ccccc2)C1 (stereo not given) [Piperidolate hydrochloride]"
  targetDesc: "Haemophilus parainfluenzae"
  growth AUC normalised to DMSO control: 1.05
- molecule: "CCCCOc1cc(C(=O)OCCN(CC)CC)ccc1N [Benoxinate hydrochloride]"
  targetDesc: "Haemophilus parainfluenzae"
  growth AUC normalised to DMSO control: 1.01
- molecule: "C#C[C@]1(O)CC[C@H]2[C@@H]3[C@H](C)CC4=C(CCC(=O)C4)[C@H]3CC[C@@]21C [Tibolone]"
  targetDesc: "Haemophilus parainfluenzae"
  growth AUC normalised to DMSO control: 0.966

Attribution: the supplement of paper PMC12350171
